Just for reference, patent US20130096092A1 is where these values come from.

- test.details: Compound toxicity in monocyte-macrophages
- Type: cell-based
- setup.conditions: human, monocyte-macrophages; Table 1; read-out: TC50, Monocytes-macrophages
metric: CC50 at 6 days

So what does the record say about CC50 at 6 days for NC(=O)CCNC(=O)c1ccccc1SCc1ccccc1 ?
> 100 µM

For CC(C)C(=O)Oc1ccc(CSc2ccccc2C(=O)NCCC(N)=O)cc1 , what is its reported CC50 at 6 days?
> 100 µM

Name the reported CC50 at 6 days value associated with the molecule CC(=O)Sc1ccccc1C(=O)NCCC(N)=O
> 100 µM

###

Hi there, I'd appreciate the recorded pEC50 for every entry that follows.
- System: HIVBaL
- test.details: XTT cytoprotection assay, monocyte-macrophages infected with HIVBaL
- Assay type: cell-based, HIV
- setup.conditions: Human immunodeficiency virus 1; Table 2; monocyte-macrophages infected with HIVBaL, XTT; read-out: EC50 (50% cytoprotection), Monocyte/Macrophage
Conceptually, pEC50 converts a concentration in mol/L into minus its log10.

GET /values?readout=pEC50&item= CC(=O)Sc1ccccc1C(=O)NCCC(N)=O
5.71

For CC(C)C(=O)Oc1ccc(CSc2ccccc2C(=O)NCCC(N)=O)cc1 , what is its reported pEC50?
6.21

###

- Test system: HIV-1RF
- test.details: XTT cytoprotection assay, CEM-SS cells infected with HIV-1RF
- Type: cell-based
- setup.conditions: Human immunodeficiency virus 1, Table 2, read-out: EC50 (50% cytoprotection), CEM-SS cells
Assign pEC50 to each entry below.
Please report pEC50 as the negative decimal logarithm of the molar concentration, giving only the number.

May I ask what pEC50 has been recorded for CC(=O)Sc1ccccc1C(=O)NCCC(N)=O ?
6.22

pEC50 lookup needed for CC(C)C(=O)Oc1ccc(CSc2ccccc2C(=O)NCCC(N)=O)cc1 , thanks.
6.70

###

- test.details: Compound toxicity in PBMC
- Format: cell-based
- setup.conditions: human, peripheral blood mononuclear cells (PBMC); Table 2; read-out: TC50, PBMC
Can you tell me CC50 at 6 days for the items I'm about to list?

May I ask what CC50 at 6 days has been recorded for CC(C)C(=O)Oc1ccc(CSc2ccccc2C(=O)NCCC(N)=O)cc1 [Compound 7a] ?
> 100 µM

Please report the recorded CC50 at 6 days for CC(=O)Sc1ccccc1C(=O)NCCC(N)=O [Compound 8] .
> 100 µM

###

- Test system: HIVBaL
- test.details: XTT cytoprotection assay, monocyte-macrophages infected with HIVBaL
- Format: cell-based, HIV
- setup.conditions: Human immunodeficiency virus 1, 144 h; Table 1; monocyte-macrophages infected with HIVBaL, 6 days, XTT; read-out: EC50 (50% cytoprotection), Monocytes-macrophages
metric: pEC50
Quick note: pEC50 means taking -log10 of the concentration in moles per liter.

// returns reported pEC50 for input CC(C)C(=O)Oc1ccc(CSc2ccccc2C(=O)NCCC(N)=O)cc1
6.22

Can you share its pEC50? I mean this molecule: CC(=O)Sc1ccccc1C(=O)NCCC(N)=O
5.70

###

- Tested on: HIV-1HT/92/599
- test.details: XTT cytoprotection assay, PBMC infected with HIV-1HT/92/599
- Format: cell-based
- setup.conditions: Human immunodeficiency virus 1; Table 2; PBMC infected with HIV-1HT/92/599, XTT; read-out: EC50 (50% cytoprotection), PBMC
metric: pEC50
Conceptually, pEC50 converts a concentration in mol/L into minus its log10.

I'd like to know its pEC50. The molecule in question is CC(=O)Sc1ccccc1C(=O)NCCC(N)=O
5.24

Which value of pEC50 has been reported for CC(C)C(=O)Oc1ccc(CSc2ccccc2C(=O)NCCC(N)=O)cc1 in the records?
5.39
